Origin of values: patent US20250127698A1

test: DSC keratin denaturation temperature change after curling treatment; parameters: species or system human; settings: Type 1 Chinese hair after curling treatment; larger ΔT indicates more damage
The following compounds are listed with their measured ΔT (TUntreated−TAlkalizer, keratin denaturation temperature) values.
Respond numerically; units are C. ° and should not be typed.

Use the examples below as a reference point.
{"compound": "N.O [Ammonium hydroxide, reference compound]", "readout_units": "C. °", "numeric_readout": 0.80}
{"compound": "CC(N)(CO)CO [AMPD, 2-Amino-2-methyl-1,3-propanediol]", "readout_units": "C. °", "numeric_readout": 0.68}
{"compound": "CC(C)(N)CO [AMP, Aminomethyl propanol, reference compound]", "readout_units": "C. °", "numeric_readout": 1.65}
{"compound": "CCC(N)(CO)CO [AEPD, 2-Amino-2-ethyl-1,3-propanediol]", "readout_units": "C. °", "numeric_readout": 1.31}

Please examine the following record next.
Request: Give the measured ΔT (TUntreated−TAlkalizer, keratin denaturation temperature) for CN(C)C(C)(C)CO [DMAMP, 2-Dimethylamino-2-methyl-1-propanol]
Result: 5.78

###

assay: DSC keratin denaturation temperature change after straightening treatment; set-up: species or system human; settings: Type 3 Caucasian hair after straightening; larger ΔT indicates more damage
The following compounds are listed with their measured ΔT (TUntreated−TAlkalizer, keratin denaturation temperature) values.
Respond numerically; units are °C and should not be typed.

Use the examples below as a reference point.
{"compound": "CC(N)(CO)CO [AMPD, 2-Amino-2-methyl-1,3-propanediol]", "readout_units": "°C", "numeric_readout": 0.32}
{"compound": "CCC(N)(CO)CO [AEPD, 2-Amino-2-ethyl-1,3-propanediol]", "readout_units": "°C", "numeric_readout": 1.13}
{"compound": "NC(CO)(CO)CO [Tris, Tromethamine]", "readout_units": "°C", "numeric_readout": 0.07}
{"compound": "NCC(O)CO (stereo not drawn) [Isoserinol, 3-Amino-1,2-propanediol]", "readout_units": "°C", "numeric_readout": 2.17}

Request: Give the measured ΔT (TUntreated−TAlkalizer, keratin denaturation temperature) for CN(C)C(C)(C)CO [DMAMP, 2-Dimethylamino-2-methyl-1-propanol]
Result: 1.43

Request: Give the measured ΔT (TUntreated−TAlkalizer, keratin denaturation temperature) for NC(CO)CO [Serinol, 2-Amino-1,3-propanediol]
Result: 0.50
